# Tested on: atrial peptide-degrading enzyme (ADE)
# protocol.text: Inhibition of ADE activity (AcAPI production from 50 μM AcAPII, HPLC)
# Assay type: biochemical, bovine
property.label: Inhibition of ADE, in words

Query :: Record request: Inhibition of ADE, in words value, item C[C@H](CS)C(=O)N1CCC[C@H]1C(=O)O [Captopril]
Result :: slight inhibition

Query :: Record request: Inhibition of ADE, in words value, item CC(=O)N[C@@H](CC(C)C)C(=O)N[C@@H](CC(C)C)C(=O)N[C@H](C=O)CCCNC(=N)N [Leupeptine]
Result :: slight inhibition

###

compounds and their reported Percent Inhibition of ADE
# Test system: atrial peptide-degrading enzyme (ADE)
# protocol.text: Inhibition of ADE activity (AcAPI production from 50 μM AcAPII, HPLC)
# Assay type: biochemical, bovine
# measurement.conditions: inhibitor 0.1 mM; 50 μM AcAPII, 1 hour, 37° C.
*1 amine or outer side, *2 acyl side, *3 side chain or, on linkers, in order; H or OH if unused. Where a SMILES comes first, the peptide text is derived from it. CO = O=C([*:1])[*:2]
Please state the figure in %; there is no need to write the unit.

Worked examples, 3 compounds total:
Query :: Record request: Percent Inhibition of ADE value, item CC(=O)N[C@@H](CC(C)C)C(=O)N[C@@H](CC(C)C)C(=O)N[C@H](C=O)CCCNC(=N)N [Leupeptine]
Result :: 33

Query :: Record request: Percent Inhibition of ADE value, item CC(C)C[C@H](NC(=O)N[C@H](C(=O)N[C@@H](CCC(N)=O)C(=O)N[C@@H](C)C=O)[C@@H]1CCNC(=N)N1)C(=O)O [Elastinal]
Result :: 10

Query :: Record request: Percent Inhibition of ADE value, item CC(C)C[C@H](NC(=O)[C@H]1O[C@@H]1C(=O)O)C(=O)NCCCCN=C(N)N (relative stereo) [E64]
Result :: 0

***
Query :: Record request: Percent Inhibition of ADE value, item CC(C)C[C@H](NC(=O)[C@@H](NC(=O)N[C@@H](Cc1ccccc1)C(=O)O)[C@@H]1CCN=C(N)N1)C(=O)N[C@H](C=O)Cc1ccccc1 [Chymostatin]
Result :: 8

Query :: Record request: Percent Inhibition of ADE value, item CC(C)[C@H](NC(=O)[C@H](CCCNC(=N)N)NC(=O)N[C@@H](Cc1ccccc1)C(=O)O)C(=O)N[C@H](C=O)CCCNC(=N)N [Antipain] ({Phe-CO}-Arg-Val-Arg-aldehyde)
Result :: 0
